- SYSTEM UNDER TEST: T1, human EGFRvIII expressed on cells (human, UniProt P00533 298-1210)
- T1 construct: the F98-npEGFRvIII line was obtained from ATCC and its construct is not described; also called F98-npEGFRvIII; F98-EGFRvIII
- PROTOCOL: flow cytometry, F98-npEGFRvIII against F98, F98-EGFRwt and A431 cells
MEASURED QUANTITY: fold MFI on EGFRvIII expressing cell line over non-expressing cell lines

Worked set:
BINDER: 20B9 (antibody, V domains shown, Hybridoma supernatant (AlivaMab mouse); captured/detected via mouse Fc) VH: QVTLKESGPVLVKPTETLTLTCTVSGFSLSNARMGVSWIRQPPGKALEWLGHIFSTDEKSYSTSLRGRITISKDTSRGLVVLTLTNMDPVDTATYYCARDSSNYEGYFDFWGPGFLVTVSS VL: EIVMTQSPATLSVSPGERATLSCRVSQSIGANLAWYQQKFGQAPRLLIYGASTRATGIPVRFSGGGSGTEFTLTISSLQSEDFAIYSCQQYIYWPFTFGPGTTVDIK
RESULT: ≥ 10 fold

BINDER: 19A9 (antibody, V domains shown, Hybridoma supernatant (AlivaMab mouse); captured/detected via mouse Fc) VH: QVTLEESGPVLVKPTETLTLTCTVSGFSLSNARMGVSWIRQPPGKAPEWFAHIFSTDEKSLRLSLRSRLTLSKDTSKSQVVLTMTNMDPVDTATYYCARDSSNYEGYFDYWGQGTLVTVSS VL: EVVMTQSPATLSVSPGERATLSCRASQSVNRNLAWYQQKPGQAPRLLIFGTSTRATGIPARFSGSGSGTEFTLTIDSLQSEHSGLYYCQQYNDWPFTFGPGTKVDIK
RESULT: ≥ 10 fold

Here is the next item to consider.
Any idea what fold MFI on EGFRvIII expressing cell line over non-expressing cell lines was measured for 12H6 (antibody, V domains shown, Hybridoma supernatant (AlivaMab mouse); captured/detected via mouse Fc) VH: QVTLKESGPVLVKPTETLTLTCTVSGFSLSNARMGVSWIRQPPGKALEWLAHIFSTDEKSIRRSLRSRLTLSKDTSKSQVVLTMTNMDPVDTATYYCARDSSNYEGYFDYWGQGTLVTVSS VL: EVVMTQSPATLSVSPGERATLSCRASQGVSSNFAWYQQRPGQSPRLLLYGASTRATGVPGRFSGSGSGTENILTISSLQSEDFAIYFCQQYKDWPFTFGPGSKVDIK ?
≥ 10 fold
